For each of the binders below, state its IC50, LTβR NF-κB luciferase reporter, HEK293-LIGHT cells.
# system: LIGHT on the surface of HEK293-LIGHT stable cells (human, UniProt O43557 1-240)
# Sequence (O43557 whole entry): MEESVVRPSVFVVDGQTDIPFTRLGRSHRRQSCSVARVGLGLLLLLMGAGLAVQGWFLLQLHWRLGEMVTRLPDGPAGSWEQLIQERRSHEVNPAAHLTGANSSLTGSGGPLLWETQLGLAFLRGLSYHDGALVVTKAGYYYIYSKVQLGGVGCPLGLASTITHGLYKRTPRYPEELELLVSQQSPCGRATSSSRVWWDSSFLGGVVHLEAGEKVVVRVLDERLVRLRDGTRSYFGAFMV
# method_notes: cell-based or functional assay
Response body: numeric value in µg/mL, unit text excluded.

Quick one: give measured IC50, LTβR NF-κB luciferase reporter, HEK293-LIGHT cells for hum_LT-m37-6 (antibody, human IgG4, V domains shown, humanized from LT-m37) VH: QVQLVQSGAEVKKPGASVKVSCKASGYSFTGYFINWVRQAPGQGLEWIGRIYPYNVNTFYNQNFKGRATLTADKSTSTAYMELSSLRSEDTAVYYCGRGTHYYGSSGAMDYWGQGTLVTVSS VL: EIVMTQSPATLSVSPGERATLSCKASQNVGTAVAWYQQKPGQSPRLLIYSASNRYTGIPARFSGSGSGTEFTLTISSLQSEDFAVYFCQQYSSYPYTFGGGTKVEIK
1.86

Quick one: give measured IC50, LTβR NF-κB luciferase reporter, HEK293-LIGHT cells for hum_LT-m37-5 (antibody, human IgG4, V domains shown, humanized from LT-m37) VH: QVQLVQSGAEVKKPGASVKVSCKASGYSFTGYFINWVRQAPGQSLEWIGRIYPYNVNTFYNQNFKGRATLTADKSTSTAYMELSSLRSEDTAVYYCGRGTHYYGSSGAMDYWGQGTLVTVSS VL: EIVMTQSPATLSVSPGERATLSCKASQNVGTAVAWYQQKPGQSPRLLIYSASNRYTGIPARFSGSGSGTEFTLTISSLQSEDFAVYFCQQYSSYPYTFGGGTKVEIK
2.22

Quick one: give measured IC50, LTβR NF-κB luciferase reporter, HEK293-LIGHT cells for hum_LT-m37-9 (antibody, human IgG4, V domains shown, humanized from LT-m37) VH: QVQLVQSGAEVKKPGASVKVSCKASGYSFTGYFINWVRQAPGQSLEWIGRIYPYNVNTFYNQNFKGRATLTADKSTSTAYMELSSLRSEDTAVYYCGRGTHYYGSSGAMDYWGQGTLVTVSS VL: EIVLTQSPATLSVSPGERATLSCKASQNVGTAVAWYQQKPGQSPRLLIYSASNRYTGIPARFSGSGSGTEFTLTISSLQSEDFAVYYCQQYSSYPYTFGGGTKVEIK
3.86

Quick one: give measured IC50, LTβR NF-κB luciferase reporter, HEK293-LIGHT cells for hum_LT-m37-1 (antibody, human IgG4, V domains shown, humanized from LT-m37) VH: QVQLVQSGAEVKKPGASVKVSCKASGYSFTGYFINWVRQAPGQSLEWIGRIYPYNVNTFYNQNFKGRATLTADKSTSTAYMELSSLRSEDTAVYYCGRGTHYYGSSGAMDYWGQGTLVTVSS VL: EIVLTQSPATLSVSPGERATLSCKASQNVGTAVAWYQQKPGQSPRLLIYSASNRYTGIPARFSGSGSGTEFTLTISSLQSEDFAVYFCQQYSSYPYTFGGGTKVEIK
5.39
